Details: in isopropanol, 308.15 K
Measurement Kind: solubility (mole fraction)
One number for each entry.

Exercise: Which measured solubility (mole fraction) value corresponds to CC(C)(C)C(O)/C(=C\c1ccc(Cl)cc1)n1cncn1 (stereo unspecified) ?
Key: 0.0268

====

Conditions: in n-butanol, 288.15 K
Measurement Kind: solubility (mole fraction)
Give bare numbers.

Exercise: Form field: reported solubility (mole fraction) of CC(C)(C)C(O)/C(=C\c1ccc(Cl)cc1)n1cncn1 (stereo unspecified)
Key: 0.0196

====

Conditions: in isobutanol, 323.15 K
Measurement Kind: solubility (mole fraction)
Give bare numbers.

Exercise: Please look up its solubility (mole fraction): CC(C)(C)C(O)/C(=C\c1ccc(Cl)cc1)n1cncn1 (stereo unspecified)
Key: 0.0566
